biological target: full length human PAR-2 (human) (UniProt P55085); experiment: cell ELISA, 10 ug/ml antibody
Sequence (P55085 26-397 G138A limits assumed): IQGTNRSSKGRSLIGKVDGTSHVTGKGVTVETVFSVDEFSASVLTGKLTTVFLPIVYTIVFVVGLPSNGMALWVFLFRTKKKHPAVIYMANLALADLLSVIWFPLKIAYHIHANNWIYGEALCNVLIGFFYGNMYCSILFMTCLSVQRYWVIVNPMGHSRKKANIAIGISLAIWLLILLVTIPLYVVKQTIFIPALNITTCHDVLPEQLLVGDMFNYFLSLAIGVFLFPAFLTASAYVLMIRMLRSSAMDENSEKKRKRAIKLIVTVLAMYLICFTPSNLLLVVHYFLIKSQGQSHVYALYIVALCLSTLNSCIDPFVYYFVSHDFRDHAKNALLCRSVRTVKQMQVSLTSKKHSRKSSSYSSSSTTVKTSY
Endpoint name: A450 ratio (293/D9/hPAR-2rec to 293/D9 cells)
// no unit, no text: just the number

These recorded examples may help you get a feel for the data.
Binder	Quantitative readout
H1M619N (antibody, V domains shown) VH: EVQLVESGGGLVQAGRSLRLSCAASGFTFDDYAMHWVRQAPGKGLEWVSGISWNSGSRGYADSVKGRFTISRDNAKNSLHLQMYSLRAEDTALYYCAKENWSFDYWGQGTLVTVSS VL: DIVMTQTPLSSPVTLGQPASISCRSSQSLVHSDGNTYLSWLQQRPGQPPRLLIYKISYRFSGVPDRFSGSGAGTDFTLKISRVATEDVGVYYCMQATQLPYTFGQGTKLEIK	1.51
H2M611N (antibody, V domains shown) VH: EVQLLESGGGLVQPGGSLRLSCAASGFTFSSYAMTWVRQAPGKGLYWVSAISGSGGSAYYADSVKGRFTISRDNSKNTLYLQMNSLRAEDTAVYYCAKEGDSGYDLDYWGRGTLVTVSS VL: DIQMTQSPSSLSASVGDRVTITCRARQGISNYLAWLQQKPGKAPKSLIYAASSLQSGVPSKFSGSGSGTDFTLTISSLQPEDFATYYCQQYKSSPLTFGGGTKVEIK	1.76
H3M620N (antibody, V domains shown) VH: EVQLVESGGNVVRPGGSLRLSCAASGFTFDDYGMTWVRQVPGKGLEWVSGINWNGGSTDYADSVKGRFTISRDNAKNSLYLQMNSLRAEDTALYYCARDKGFYGMDVWGQGTTVTVSS VL: DIVMTQSPDSLAVSLGERATINCKSSQNPLYNSNKKKYLAWYQQKPGQPPKLVIYWASTRESGVPDRFSGSGSGTDFTLTITSLQAEDVAVYYCQQYYSTPYTFGQGTKLEIK	1.24

Moving on to another binder below.
Provide measured A450 ratio (293/D9/hPAR-2rec to 293/D9 cells) value, entry: H2M609N (antibody, V domains shown) VH: EVQLVESGGGLVQPGRSLRLSCAASGFTFDDYAMHWVRQAPGKGLEWVSGISWNSGSKGFADSVKGRFTISRDNAKNSLYLQMNSLRVEDTALYYCAKENWSFDYWGQGTLVTVSS VL: DIVMTQTPLSSPVTLGQPASISCRSSQSLVHSDGNIYLSWLQQRPGQPPRLLIYKISNRFSGVPDRFSGSGAGTDFTLKISRVEAEDVGIYYCMQASHFPYTFGQGTKLEIK
1.54
